test system: Bacillus subtilis DB104 (SP-AmyQ fusion secretion); assay: AmyQ secretion efficiency, weighted average sort bin (1 = best secretion, 10 = worst) (bin number (weighted average, 1-10)); higher = lower secretion efficiency
ENDPOINT NAME: AmyQ secretion efficiency
No unit in the answer, only the number.

Quick one: AmyQ secretion efficiency for `MKLAKRVSALTPSTTLAITMKAKEL` ?
6.37

Give the measured AmyQ secretion efficiency of `MKKAFLVFLSVVLVTTVFLVKQQESVSGAQAKQL` .
4.03

# AmyQ secretion efficiency lookup, item `MKRMIVRMTLPLLIVCLAFSSFSASARAASF`
1.55

Query (sequence): `MKKKQVSHARSTKTRRQFVIAVFHTIHASELTP` ; field requested: AmyQ secretion efficiency
8.17

Any idea what AmyQ secretion efficiency was measured for `MMIKQCVICLSLLVFGTTKAHAEET` ?
2.63

Given the entry `MMLMMSVSMFLVALTMCGGLFVTPAKAVKT` , report its measured AmyQ secretion efficiency.
4.77

Look up AmyQ secretion efficiency: `MKRFSTAYLLLGILCSAAVFLIGAPSRCLGAEV`
3.15

Look at this sequence and give its reported AmyQ secretion efficiency. `MKRNLTITMFILVLSFLSIIVAYPIQTNASPM`
5.49

====

tested on: Bacillus subtilis DB104 (SP-AmyQ fusion secretion); assay: AmyQ secretion efficiency, weighted average sort bin (1 = best secretion, 10 = worst) (bin number (weighted average, 1-10)); higher = lower secretion efficiency
Each entry below lists one item and its recorded AmyQ secretion efficiency value.
Respond numerically, and do not add a unit to the figure.

Some solved cases for reference:
- SEQUENCE RECORD: "MLKKKWMVGLLAGCLAAGVALALSGFSYNAFATEN"
  RECORDED VALUE: 5.02
- SEQUENCE RECORD: "MKKAFILSAAAAVGLFTFSIGGVQQASAKEL"
  RECORDED VALUE: 3.67
- SEQUENCE RECORD: "MLFLLVSLRVWMVFLMNWVTPDRKTAAAAVY"
  RECORDED VALUE: 6.62
- SEQUENCE RECORD: "MLCVMMLLFSAIAKRRVSAQAKDQ"
  RECORDED VALUE: 7.83
- SEQUENCE RECORD: "MKKARRRKAAAAVGLFTFGGVQQASAKEL"
  RECORDED VALUE: 6.73
- SEQUENCE RECORD: "MKKRLIGFLVLVPALIMSGITLIEDNKK"
  RECORDED VALUE: 7.79

What value of AmyQ secretion efficiency has been recorded for this entry: `MKKAFLVFLSVVLVTTVFLVKQQEAQAKQL`
2.1

Please give the measured AmyQ secretion efficiency for this sequence: `MKKTGIRFLLVSFVLFFALSTGITGVQAAPA`
1.8

For `MFNRLFRVCFLAALIMAFRKKNSVYAQKP` , what is its reported AmyQ secretion efficiency?
7.12

What value of AmyQ secretion efficiency has been reported for the following sequence? `MKKKLAAGLTASAIVGTTLVVTPFEAATI`
5.7

Sample `MKKGIIRFRRKKFVLFFALSTGITGVQAAPA` — what was its AmyQ secretion efficiency?
4.49

====

tested on: Bacillus subtilis DB104 (SP-AmyQ fusion secretion); assay: AmyQ secretion efficiency, weighted average sort bin (1 = best secretion, 10 = worst) (bin number (weighted average, 1-10)); higher = lower secretion efficiency
Where AmyQ secretion efficiency equals or exceeds 6, the correct label is criterion met; where it does not, the label is criterion not met.

Look over these answered cases.
- SEQUENCE RECORD: "MKWMCSICCAAVLLAGGAHQAEAV"
  ASSIGNED LABEL: "criterion not met"
- SEQUENCE RECORD: "MRRKKRKVVGFLSVLGLAAVFPLTAQAEKA"
  ASSIGNED LABEL: "criterion not met"
- SEQUENCE RECORD: "MAIIIAIIAAVIVIAALITFNVRNMSPG"
  ASSIGNED LABEL: "criterion met"

State whether the measured AmyQ secretion efficiency reaches 6, counting equality as reaching it, for `MKRIRIPMTYRYQSALTIAPLSFASAEEN`
criterion met

Could you please find out whether `MRKTIFAFLTGLMMFGTITAASASPF` has AmyQ secretion efficiency that meets 6 or exceeds it?
criterion not met

Would you say `MRKKRLLTIYIMLLGLIAWFPGAAQAEEK` shows AmyQ secretion efficiency at minimum 6?
criterion not met

Test whether the sequence `MKKRLIQVMIMFTLLLRKRRSADAADS` records AmyQ secretion efficiency of 6 or higher.
criterion met

Determine whether measured AmyQ secretion efficiency meets or exceeds 6 for `MKKRLIGFLVLVPALIMSGITLEEANKK`
criterion met

Reported AmyQ secretion efficiency reaches at least 6 for `MKNMSCKLVVSVTLFFSFLTIGPLAHEQNS` ?
criterion not met

Would you say `MTTTAWFLPLVCVLLISGWLAPAASASAQTT` shows AmyQ secretion efficiency at minimum 6?
criterion not met

In plain terms: is recorded AmyQ secretion efficiency at least 6 for `MKKGIIRFLLVSFVLFFALSTGITGVQAAPK` ?
criterion not met

Identify whether the reported AmyQ secretion efficiency of the following sequence is 6 or greater: `MFMMLGSLLITAGILVFFAVVVKDVFAAGL`
criterion met

Is AmyQ secretion efficiency for `MKLAKRVSALTPSTTLAITAKVKEL` at or above 6?
criterion met

Evaluate `MKKVLMAFIICLSLILSVLAAPPSGAKIESV` : AmyQ secretion efficiency at minimum 6?
criterion not met

hey, is AmyQ secretion efficiency for this one >= 6? `MAIIIAIIAAVIVIAALITFNVRNGSPG`
criterion met

Could you verify whether the entry `MKKRFFGPIILAFILFTASTAFTAIAGAIAIPS` shows AmyQ secretion efficiency of no less than 6?
criterion not met

Reported AmyQ secretion efficiency at or above 6? `MGMKKKLSLGVASAALGLALVGGGTWGAFN`
criterion met

Entry `MKVLLSALLLLLFAFEPSSSGKKL` : is its AmyQ secretion efficiency no less than 6?
criterion met

Tell me whether AmyQ secretion efficiency is at least 6 here: `MKKRLIGFLVLVPALIMSGITLIEINKK`
criterion met

Origin of values: the supplement of paper PMC9942255
